system: PC-3 prostate
RECORDED_ENDPOINT: GI50

COMPOUND	RESULT_VALUE
COc1cc2c(cc1OC)C(CCc1ccc(Cl)cc1)N(C)CC2 (stereo unspecified)	20.1 µM

Query string: Report its GI50 with PC-3 prostate as the test system: O=C1Cc2cc(CCn3ccnc3)c(Cl)cc2N1
Result string: 35.6 µM

Query string: # return GI50 for CCOP(=O)(CCP(=O)(OCC)OCC)OCC.C[CH2][Sn]([Cl])([Cl])[CH2]C , test system: PC-3 prostate
Result string: > 100 µM

Query string: # assay system PC-3 prostate: give GI50 of Cc1ccc(-n2c3c(c4c(CN5CCCCC5)c(O)ccc42)CCc2ccccc2C3=O)cc1
Result string: 59.2 µM

Query string: Find GI50 for O=S(=O)(NCCNc1nccc(-c2c(-c3cccc(O)c3)nc3sccn23)n1)c1ccc(F)cc1 on PC-3 prostate and write it down.
Result string: 5.66 µM

Query string: Return reported GI50 for target or system PC-3 prostate, item O=C(Nc1cccc(Cl)c1)Nc1cccc(Cl)c1 .
Result string: 2.54 µM

---

test system: EKVX NSCLC
Outcomes you can answer with include only these: True = active, False = inactive

COMPOUND	TESTED_SYSTEM	CLASS_NAME
COc1cc2c(cc1OCCCCNC(=O)c1cc3ccccc3[nH]1)N=CC1CCCN1C2=O (stereo not given)	EKVX NSCLC	False
CC/C(=N\Nc1nc2ccccc2n1C)c1ccccn1	EKVX NSCLC	True
O=C(N[C@H](c1ccc(Cl)c(Cl)c1)C1CNC1)c1ccc2cnccc2c1	EKVX NSCLC	False
CCCc1cc(=O)oc2c(C(=O)CC(C)C)c(O)c(CC=C(C)C)c(O)c12	EKVX NSCLC	False

// switching to the query compound
Query string: How was CCOP(=O)(CCP(=O)(OCC)OCC)OCC.C[CH2][Sn]([Cl])([Cl])[CH2]C classified in this test?
Result string: False

---

Endpoint: GI50. System: U251 CNS. Items follow.

Some solved entries appear below for comparison.
MOLECULE	TESTED_SYSTEM	RESULT_VALUE
Nc1nc(N)c2cc(CNc3ccc(Cl)c(Cl)c3)ccc2n1	U251 CNS	433 nM
O=C1NC(=NCc2cccs2)SC1Cc1ccc2ncccc2c1 (stereo not given)	U251 CNS	17600 nM
O=C1Cc2cc(CCn3ccnc3)c(Cl)cc2N1	U251 CNS	8240 nM

Query string: Name the value of GI50 reported for O=C(N[C@H](c1ccc(Cl)c(Cl)c1)C1CNC1)c1ccc2cnccc2c1 when tested on U251 CNS.
Result string: 4620 nM

Query string: # lookup: U251 CNS GI50, key = O=C(CCCn1c2c(sc3ncccc32)c(=O)n2nnc(-c3ccccc3)c12)NCCc1cnc[nH]1
Result string: 1280 nM

Query string: Fill in GI50 for O=C(Oc1cccnc1)c1ccccc1Nc1ccnc(C(F)(F)F)c1 tested with U251 CNS.
Result string: 330 nM

---

Recorded TGI by entry
tested on: KM12 colon; assay: NCI tumour cell line growth inhibition, 48 h

COMPOUND	RESULT_VALUE
CCOC(=O)CC(=O)ON(C)C(=O)Cc1ccccc1	> 100 µM
C=CCn1c2ccccc2c2c(C)c3cnccc3c(C)c21	83.9 µM
N/C(=N\O)c1ncc(-c2ccc(C(F)(F)F)cc2)c(NC2CCCCCC2)n1	13.1 µM
NS(=O)(=O)c1ccc(NNC(=O)c2cccc3c(=O)c4ccccc4[nH]c23)cc1	> 100 µM
COc1cc2c(cc1OCCCCNC(=O)c1cc3ccccc3[nH]1)N=CC1CCCN1C2=O (stereo unspecified)	52.6 µM

Query string: Note TGI for the compound shown: Cn1c(-c2ccccc2)cc(-c2ccc3c(c2)OCO3)c1-c1cccs1
Result string: > 100 µM

Query string: Report measured TGI; entry is CC(/C=C/c1ncccc1OCCCCCC(=O)O)=N\NC1=NCCN1
Result string: > 100 µM

Query string: Note TGI for the compound shown: CC(=O)OC1C=CC2CCN3C(=O)c4cc5c(cc4[C@H]1C23)OCO5 (stereo partly specified)
Result string: > 100 µM

Query string: Specify TGI for O=[N+]([O-])c1cc2n[nH]nc2c2nonc12 and stop.
Result string: > 100 µM

Query string: Write down TGI measured for item COC(=O)CCC(NC(=S)N/N=C(\C)c1ccccn1)C(=O)OC (stereo unspecified)
Result string: > 100 µM
